meta.source: patent US20130116241A1

# SYSTEM_NAME: human PDE10A (UniProt Q9Y233)
# Sequence (Q9Y233 290-1055 limits assumed): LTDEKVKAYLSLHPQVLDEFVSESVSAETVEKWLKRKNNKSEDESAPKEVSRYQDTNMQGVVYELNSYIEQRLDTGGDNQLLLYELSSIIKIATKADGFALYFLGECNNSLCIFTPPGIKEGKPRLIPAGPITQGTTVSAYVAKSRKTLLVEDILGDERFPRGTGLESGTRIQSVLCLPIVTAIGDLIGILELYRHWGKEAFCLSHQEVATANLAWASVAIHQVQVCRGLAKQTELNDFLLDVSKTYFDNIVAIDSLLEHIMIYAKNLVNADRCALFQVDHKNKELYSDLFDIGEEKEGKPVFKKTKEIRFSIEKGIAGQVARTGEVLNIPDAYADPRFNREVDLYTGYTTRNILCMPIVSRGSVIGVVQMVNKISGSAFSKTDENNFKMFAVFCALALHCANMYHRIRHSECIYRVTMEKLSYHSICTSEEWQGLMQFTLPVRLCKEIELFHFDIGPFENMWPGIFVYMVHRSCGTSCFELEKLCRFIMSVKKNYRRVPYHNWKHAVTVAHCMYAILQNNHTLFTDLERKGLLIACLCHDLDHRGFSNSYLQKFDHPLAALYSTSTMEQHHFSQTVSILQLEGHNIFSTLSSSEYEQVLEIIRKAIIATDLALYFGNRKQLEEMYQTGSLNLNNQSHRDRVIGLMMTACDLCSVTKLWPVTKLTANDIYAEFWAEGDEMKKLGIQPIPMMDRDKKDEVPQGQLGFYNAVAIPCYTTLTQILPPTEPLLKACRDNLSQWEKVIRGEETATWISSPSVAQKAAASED
# MEASUREMENT_PROTOCOL: Measurement of PDE activity (recombinant enzyme, HTRF cAMP kit)
# Assay type: biochemical
# CONDITION_SUMMARY: Table 1, substrate 20 nM for PDE10, 60 minutes at 29 C, read-out: IC50
RECORDED_METRIC: IC50

A selection of reference data follows.
COMPOUND: COc1ccc(-c2cccc3cnn(CCc4ccc5ccccc5n4)c(=O)c23)cn1
IC50: < 100 nM
--
COMPOUND: O=c1c2c(-c3ccccc3)cccc2cnn1CCc1ccc2ccccc2n1
IC50: < 100 nM

Could you tell me which IC50 is on file for CC(C)Cn1cc(-c2csc3cnn(CCc4ccc5ccccc5n4)c(=O)c23)cn1 ?
200 to 500 nM

COc1ccc(-c2csc3cnn(CCc4ccc5ccccc5n4)c(=O)c23)cn1 , same question.
100 to 200 nM

Now consider O=c1c2cccc(-c3ccncc3)c2cnn1CCc1nc2ccccc2[nH]1 .
100 to 200 nM

For O=c1c2c(N3CC4(COC4)C3)cccc2cnn1CCc1cn2ccccc2n1 then?
100 to 200 nM

###

# SYSTEM_NAME: UniProtKB Q9Y233
# MEASUREMENT_PROTOCOL: Measurement of PDE activity (recombinant enzyme, HTRF cAMP kit)
# Format: biochemical
# CONDITION_SUMMARY: Table 1, substrate 20 nM for PDE10, 60 minutes at 29 C, read-out: IC50
pIC50: −log10 of the molar value. Structures can show the parent of a compound that is named as a salt.
Each entry below carries its recorded pIC50.

COMPOUND: O=c1c2c(C3=CCNCC3)csc2ccn1CCc1ccc2ccccc2n1 [Example 213, hydrochloride]
VALUE_REPORTED: 6.30 to 6.70
//
COMPOUND: O=c1c2c(-c3ccncc3)ccnc2cnn1CCc1ccc2ccccc2n1 [compound 404]
VALUE_REPORTED: > 7.00
//
COMPOUND: O=c1c2c(-c3ccccc3O)csc2cnn1CCc1ccc2ccccc2n1 [Example 23]
VALUE_REPORTED: > 7.00
//
COMPOUND: O=c1c2c(-c3ccncc3)coc2ccn1CCc1cn2ccccc2n1 [Example 230, hydrochloride]
VALUE_REPORTED: 6.70 to 7.00
//
COMPOUND: O=c1c2c(-c3ccncc3)csc2c(F)cn1C1CC1c1ccc2ccccc2n1 (centres unmarked) [compound 279]
VALUE_REPORTED: > 7.00
//
COMPOUND: O=c1c2c(-c3ccncc3)csc2cnn1C1CC1c1ccc2sccc2n1 (centres unmarked) [compound 291]
VALUE_REPORTED: > 7.00
//
COMPOUND: O=c1c2c(-c3ccncc3)cccc2c(F)cn1C1CC1c1ccc2ccccc2n1 (centres unmarked) [Example 275]
VALUE_REPORTED: > 7.00

Field: pIC50 (UniProtKB Q9Y233). Entry: O=c1c2c(-c3ccc4c(c3)CCO4)csc2cnn1CCc1ccc2ccccc2n1 [Example 46]
> 7.00

###

# SYSTEM_NAME: human PDE10A (UniProt Q9Y233)
# MEASUREMENT_PROTOCOL: Measurement of PDE activity (recombinant enzyme, HTRF cAMP kit)
# Type: biochemical
# CONDITION_SUMMARY: Table 1, substrate 20 nM for PDE10, 60 minutes at 29 C, read-out: IC50
pIC50: −log10 of the molar value. Counter-ions that a name gives are not always drawn.
RECORDED_METRIC: pIC50

COMPOUND: O=c1c2c(-c3cccc4cnccc34)csc2cnn1CCc1ccc2ccccc2n1
pIC50: 6.30 to 6.70

For the compound shown here, O=c1c2c(-c3cc(F)cc(F)c3)csc2cnn1CCc1ccc2ccccc2n1 , give the reported pIC50.
6.70 to 7.00

Param item: O=c1c2c(-c3cccc(F)c3)csc2cnn1CCc1ccc2ccccc2n1
6.70 to 7.00

Next compound: O=c1c2c(C#Cc3ccncc3)csc2cnn1CCc1ccc2ccccc2n1 [compound 320, hydrochloride]
6.30 to 6.70
